src = patent US20060069132A1

Tested on: goosegrass
Experiment: Test C pre-/postemergence herbicide test
Format: in vivo, Eleusine indica
Conditions: Postemergence; 250 g ai/ha; scale 0 to 100, 0 no effect, 100 complete control
Here, each record is paired with measured Plant response rating, Goosegrass data.
Form rule: numeric answer, no unit written next to it.

Some compounds with recorded Plant response rating, Goosegrass:
[
  {
    "compound": "C=Cn1nc(C(C)(C)C)cc1C(=O)Nc1cccc(C(=O)N(CC)CC)c1 [Compound 34]",
    "Plant response rating, Goosegrass": 40
  },
  {
    "compound": "CCn1nc(C(C)(C)C)cc1C(=O)Nc1cccc(C(=O)NC2CC2)c1 [Compound 44]",
    "Plant response rating, Goosegrass": 50
  },
  {
    "compound": "C=CCNC(=O)c1cccc(NC(=O)c2cc(C(C)(C)C)nn2C)n1 [Compound 318]",
    "Plant response rating, Goosegrass": 5
  },
  {
    "compound": "CCNC(=O)c1cccc(NC(=O)c2cc(C(C)(C)C)nn2CC)n1 [Compound 144]",
    "Plant response rating, Goosegrass": 10
  }
]

Recorded Plant response rating, Goosegrass for CCOC(=O)c1cccc(NC(=O)c2cc(C3(C)CC3)nn2CC)c1 [Compound 295] , please?
50

* * *

System: goosegrass
Test: Test C pre-/postemergence herbicide test
Format: in vivo, Eleusine indica
Settings: 125 g ai/ha; scale 0 (no effect) to 100 (complete control); visual, 12 to 14 days; preemergence
measured-parameter: Plant response rating, Goosegrass

[
  {
    "compound": "CCn1nc(C(C)(C)C)cc1C(=O)Nc1cccc(C(=O)NC2CC2)c1 [Compound 44]",
    "measured": 30
  },
  {
    "compound": "C=CCNC(=O)c1cccc(NC(=O)c2cc(C(C)(C)C)nn2C)n1 [Compound 318]",
    "measured": 10
  },
  {
    "compound": "CCNC(=O)c1ccc(F)c(NC(=O)C2CC(C(C)(C)C)=NN2CC)c1 (racemic) [Compound 269]",
    "measured": 85
  },
  {
    "compound": "CCCCOc1cccc(NC(=O)c2cc(C(C)(C)C)nn2CC)c1 [Compound 137]",
    "measured": 85
  },
  {
    "compound": "CCc1nc(C(C)(C)C)sc1C(=O)Nc1cccc(C(=O)NCC2CC2)c1 [Compound 212]",
    "measured": 60
  },
  {
    "compound": "CCN1N=C(C(C)(C)C)CC1C(=O)Nc1cc(C(=O)N2CC=CC2)ccc1F (racemic) [Compound 310]",
    "measured": 80
  }
]

Recorded Plant response rating, Goosegrass for CCc1nc(C(C)(C)C)sc1C(=O)Nc1cccc(C(=O)N(CC)CC)c1 [Compound 205] , please?
70

* * *

Test system: pigweed
Assay: Test C pre-/postemergence herbicide test
Type: in vivo, Amaranthus retroflexus
Details: 125 g ai/ha; scale 0 (no effect) to 100 (complete control); visual, 12 to 14 days; preemergence
Here, each record is paired with measured Plant response rating, Pigweed data.
Form rule: numeric answer, no unit written next to it.

Recorded Plant response rating, Pigweed for CCN(CC)C(=O)c1cccc(NC(=O)c2sc(C(C)(C)C)nc2C)c1 [Compound 199] , please?
100

Recorded Plant response rating, Pigweed for CCNC(=O)c1cccc(NC(=O)c2cc(C(C)(C)C)nn2CCF)c1 [Compound 35] , please?
100

Recorded Plant response rating, Pigweed for CCn1nc(C(C)(C)C)cc1C(=O)Nc1cccc(C(=O)NC2CC2)c1 [Compound 44] , please?
70

Recorded Plant response rating, Pigweed for C=CCNC(=O)c1cccc(NC(=O)c2cc(C(C)(C)C)nn2C)n1 [Compound 318] , please?
95

Recorded Plant response rating, Pigweed for CC(=O)c1cccc(NC(=O)c2cc(C(C)(C)C)nn2CCF)c1 [Compound 128] , please?
60

Recorded Plant response rating, Pigweed for CCNC(=O)c1cccc(NC(=O)c2cc(C(C)(C)C)nn2CC)n1 [Compound 144] , please?
90

Recorded Plant response rating, Pigweed for CCNC(=O)c1ccc(F)c(NC(=O)c2cn(C(C)(C)C)nc2CC)c1 [Compound 193] , please?
100

Recorded Plant response rating, Pigweed for CCN(CC)C(=O)c1ccnc(NC(=O)c2cc(C(C)(C)C)nn2CC)c1 [Compound 153] , please?
100

Recorded Plant response rating, Pigweed for CCNC(=O)c1ccc(F)c(NC(=O)c2cc(C3(C)CC3)nn2CC)c1 [Compound 300] , please?
100

Recorded Plant response rating, Pigweed for CCN(CC)C(=O)c1cccc(NC(=O)c2cc(C(C)(C)C)nn2C)n1 [Compound 314] , please?
60
